# Target Entity: UniProtKB P23280
# Sequence (P23280 whole entry): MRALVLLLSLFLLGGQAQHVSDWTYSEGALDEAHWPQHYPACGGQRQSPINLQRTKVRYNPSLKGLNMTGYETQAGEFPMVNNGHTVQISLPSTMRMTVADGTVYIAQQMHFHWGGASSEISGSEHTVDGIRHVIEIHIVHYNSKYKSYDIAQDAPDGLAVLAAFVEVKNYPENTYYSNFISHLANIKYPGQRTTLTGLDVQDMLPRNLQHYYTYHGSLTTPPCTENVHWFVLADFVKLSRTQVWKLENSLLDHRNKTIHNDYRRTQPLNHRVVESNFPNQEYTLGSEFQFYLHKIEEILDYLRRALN
# Test Details: Inhibition of human recombinant carbonic anhydrase 6 expressed in Escherichia coli BL21 (DE3) by stopped-flow CO2 hydration assay
Value Kind: Ki (µM)
Write the number in µM without appending the unit.

Return value of Ki for input NS(=O)(=O)CCNC(=O)/C(Cc1ccc(O)c(Br)c1)=N/O , no commentary.
9.68

---

# Target Entity: Carbonic anhydrase 4 (Homo sapiens, UniProt P22748)
# Sequence (P22748 whole entry): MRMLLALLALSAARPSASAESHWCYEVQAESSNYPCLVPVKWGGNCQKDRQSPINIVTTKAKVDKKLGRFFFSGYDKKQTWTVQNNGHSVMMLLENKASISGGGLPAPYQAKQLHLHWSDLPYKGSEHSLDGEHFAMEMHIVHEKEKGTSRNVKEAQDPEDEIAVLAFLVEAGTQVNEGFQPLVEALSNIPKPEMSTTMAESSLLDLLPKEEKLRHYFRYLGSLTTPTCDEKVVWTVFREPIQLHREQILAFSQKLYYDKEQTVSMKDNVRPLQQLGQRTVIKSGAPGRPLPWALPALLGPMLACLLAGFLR
# Test Details: Inhibition of human recombinant carbonic anhydrase 4 expressed in Escherichia coli BL21 (DE3) by stopped-flow CO2 hydration assay
Value Kind: Ki (nM)
Write the number in nM without appending the unit.

Return value of Ki for input NS(=O)(=O)CCNC(=O)/C(Cc1ccc(O)c(Br)c1)=N/O , no commentary.
75.3
